Assayed System: T1, human LAG-3 on cells (HEK293-hLAG-3 stable cell line) (human, UniProt P18627 23-525)
T1 sequence: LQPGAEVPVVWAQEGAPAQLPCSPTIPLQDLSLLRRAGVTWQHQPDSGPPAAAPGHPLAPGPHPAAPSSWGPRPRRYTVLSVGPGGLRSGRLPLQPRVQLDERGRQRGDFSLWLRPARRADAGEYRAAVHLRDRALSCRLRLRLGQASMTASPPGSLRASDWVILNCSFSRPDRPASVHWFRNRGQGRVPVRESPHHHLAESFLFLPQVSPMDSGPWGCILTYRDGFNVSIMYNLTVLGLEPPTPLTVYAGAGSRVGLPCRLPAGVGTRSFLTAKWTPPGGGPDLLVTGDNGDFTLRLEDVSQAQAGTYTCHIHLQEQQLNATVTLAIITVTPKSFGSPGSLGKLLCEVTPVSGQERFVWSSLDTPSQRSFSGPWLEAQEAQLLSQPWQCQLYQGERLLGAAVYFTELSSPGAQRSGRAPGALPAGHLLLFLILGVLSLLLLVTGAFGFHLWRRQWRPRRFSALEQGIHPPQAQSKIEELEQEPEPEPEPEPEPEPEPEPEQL
Assay Method Text: cell-based or functional assay
Recorded Metric: IL-2 production, SEB-dependent PBMC stimulation test, 0.0032 ug/ml, N = 2 (pg/mL)
Return type: number; implicit unit pg/mL.

Examples from the recorded data:
[[record]]
binder = "105F1E10 mouse-human chimeric antibody (antibody, V domains shown, also called mAb009-105F1E10) VH: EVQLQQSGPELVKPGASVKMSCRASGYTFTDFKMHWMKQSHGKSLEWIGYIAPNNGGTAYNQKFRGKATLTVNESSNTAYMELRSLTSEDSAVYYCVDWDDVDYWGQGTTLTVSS VL: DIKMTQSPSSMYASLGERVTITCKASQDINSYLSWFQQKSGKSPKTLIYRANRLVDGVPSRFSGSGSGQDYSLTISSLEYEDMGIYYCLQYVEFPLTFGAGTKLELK"
readout_value = 1840

[[record]]
binder = "556F6B8 mouse-human chimeric antibody (antibody, V domains shown, also called mAb123-556F6B8; 556F8B8) VH: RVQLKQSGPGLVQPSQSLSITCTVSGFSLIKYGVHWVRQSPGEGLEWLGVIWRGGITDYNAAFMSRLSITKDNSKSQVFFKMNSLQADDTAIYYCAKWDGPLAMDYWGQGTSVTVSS VL: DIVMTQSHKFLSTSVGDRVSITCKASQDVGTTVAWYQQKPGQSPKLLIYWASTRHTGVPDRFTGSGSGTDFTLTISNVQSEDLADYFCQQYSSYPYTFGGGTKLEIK"
readout_value = 1910

[[record]]
binder = "409B11E12 mouse-human chimeric antibody (antibody, V domains shown, also called mAb104-409B11E12) VH: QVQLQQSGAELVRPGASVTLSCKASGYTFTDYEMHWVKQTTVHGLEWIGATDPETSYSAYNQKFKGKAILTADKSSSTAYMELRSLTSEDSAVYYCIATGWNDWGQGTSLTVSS VL: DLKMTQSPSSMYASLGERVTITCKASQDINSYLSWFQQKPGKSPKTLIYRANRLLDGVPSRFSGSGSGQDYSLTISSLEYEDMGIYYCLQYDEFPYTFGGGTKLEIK"
readout_value = 1190

[[record]]
binder = "405B8H3 mouse-human chimeric antibody (antibody, V domains shown, also called mAb103-405B8H3) VH: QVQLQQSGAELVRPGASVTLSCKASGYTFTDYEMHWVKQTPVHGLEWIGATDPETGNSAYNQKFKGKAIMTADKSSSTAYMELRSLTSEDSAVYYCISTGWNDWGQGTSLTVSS VL: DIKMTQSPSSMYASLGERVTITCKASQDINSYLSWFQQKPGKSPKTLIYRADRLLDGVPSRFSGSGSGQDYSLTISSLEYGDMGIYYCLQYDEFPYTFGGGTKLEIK"
readout_value = 1600


Please turn your attention to the following entry.
Query: Please look up its IL-2 production, SEB-dependent PBMC stimulation test, 0.0032 ug/ml, N = 2: 409D4E10 mouse-human chimeric antibody (antibody, V domains shown, also called mAb112-409D4E10) VH: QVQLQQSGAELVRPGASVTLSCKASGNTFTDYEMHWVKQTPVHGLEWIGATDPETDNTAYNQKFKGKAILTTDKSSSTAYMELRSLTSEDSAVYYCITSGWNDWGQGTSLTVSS VL: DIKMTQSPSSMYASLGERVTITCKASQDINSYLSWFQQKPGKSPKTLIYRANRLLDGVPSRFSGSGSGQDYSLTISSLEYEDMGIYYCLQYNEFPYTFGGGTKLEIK
Result: 1240
